Kindly supply the reported TGI values for the records listed here.
Test system: MCF7 breast
test summary: NCI tumour cell line growth inhibition, 48 h

Given item `CC1(C)[C@@H](Cn2cnc3c(Cl)nc(N)nc32)CC[C@@]1(C)CO` , the value recorded as its TGI is > 100 µM

Given item `Cc1ncc([N+](=O)[O-])n1CCNS(=O)(=O)CCCn1ncnc1[N+](=O)[O-]` , the value recorded as its TGI is > 100 µM

Given item `COc1ccc(Cc2cnc(NC(=O)c3ccc4c(c3)OCCO4)s2)cc1` , the value recorded as its TGI is > 100 µM

###

System: RXF 393 renal
test summary: NCI tumour cell line growth inhibition, 48 h
observable: TGI (µM)
Answer in µM, number only, no unit symbol.

`N#Cc1ccc(OC(=O)Nc2ccc(Cl)c(Cl)c2)cc1` on RXF 393 renal gives TGI = 42.2

CC(C(=O)n1c2ccccc2c2ccccc21)N(c1ccccc1)c1ccccc1 (centres undefined) on RXF 393 renal gives TGI = 28.4
